From: patent US20240360228A1

# assayedSystem: T1, human CCR8 (human, UniProt P51685 1-355)
# T1 construct: Native CCR8 on human PBMC (CCR8+ CD3+ or CCR8+ CD4+ lymphocytes); also called chemokine (C-C motif) receptor 8
# T1 sequence (P51685 whole entry): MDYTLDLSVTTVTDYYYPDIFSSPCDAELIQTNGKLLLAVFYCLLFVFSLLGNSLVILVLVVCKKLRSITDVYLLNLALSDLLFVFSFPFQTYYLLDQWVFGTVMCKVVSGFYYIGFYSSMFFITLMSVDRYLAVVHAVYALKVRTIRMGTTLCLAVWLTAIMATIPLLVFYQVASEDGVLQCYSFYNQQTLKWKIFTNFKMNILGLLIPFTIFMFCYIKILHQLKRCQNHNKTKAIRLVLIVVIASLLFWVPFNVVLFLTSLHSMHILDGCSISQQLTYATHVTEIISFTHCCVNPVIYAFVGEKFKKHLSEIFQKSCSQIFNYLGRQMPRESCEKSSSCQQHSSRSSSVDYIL
# testName: flow blocking, PBMC CCR8+CD4+; competitor PE-AB15
# Experimental: For blocking studies, 100 μL of the cell suspension were incubated with 10 μg purified isotype control, AB1, AB2, AB3, AB4, AB5, AB8, AB9, AB10, AB11, AB12, AB13, AB14, AB15, and Commercial ABI antibodies, or isotype control, as blocking agents. […]
I'd appreciate it if you could supply % Positive cells values for the items below.
One number for each entry, in %.

binder: AB8 (antibody, V domains shown, Hybridoma monoclonal; also called antibody 8; clone 8) VH: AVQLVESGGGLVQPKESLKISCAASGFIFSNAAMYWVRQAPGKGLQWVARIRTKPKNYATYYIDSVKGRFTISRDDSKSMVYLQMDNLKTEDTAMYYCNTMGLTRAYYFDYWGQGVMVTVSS VL: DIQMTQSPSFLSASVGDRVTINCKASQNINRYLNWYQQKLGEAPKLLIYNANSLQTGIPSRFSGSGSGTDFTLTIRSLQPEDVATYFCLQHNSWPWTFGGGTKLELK
uom: %
% Positive cells: 0.02
//
binder: AB13 (antibody, V domains shown, Hybridoma monoclonal; also called antibody 13; clone 13) VH: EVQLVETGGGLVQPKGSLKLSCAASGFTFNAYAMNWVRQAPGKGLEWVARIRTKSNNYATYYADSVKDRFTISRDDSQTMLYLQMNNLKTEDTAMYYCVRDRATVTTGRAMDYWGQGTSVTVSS VL: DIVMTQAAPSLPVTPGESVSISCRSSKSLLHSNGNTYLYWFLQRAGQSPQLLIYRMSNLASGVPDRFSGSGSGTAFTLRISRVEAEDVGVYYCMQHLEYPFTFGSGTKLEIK
uom: %
% Positive cells: 1.74
//
binder: AB10 (antibody, V domains shown, Hybridoma monoclonal; also called antibody 10; clone 10) VH: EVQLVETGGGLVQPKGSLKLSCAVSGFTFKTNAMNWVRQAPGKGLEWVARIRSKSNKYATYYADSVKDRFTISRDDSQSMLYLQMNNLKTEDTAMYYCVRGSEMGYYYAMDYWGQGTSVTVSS VL: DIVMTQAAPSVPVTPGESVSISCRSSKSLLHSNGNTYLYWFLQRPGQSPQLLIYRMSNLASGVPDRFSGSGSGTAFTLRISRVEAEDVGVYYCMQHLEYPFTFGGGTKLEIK
uom: %
% Positive cells: 0.15

Now for another entry.
Input: Need % Positive cells of AB12 (antibody, V domains shown, Hybridoma monoclonal; also called antibody 12; clone 12) VH: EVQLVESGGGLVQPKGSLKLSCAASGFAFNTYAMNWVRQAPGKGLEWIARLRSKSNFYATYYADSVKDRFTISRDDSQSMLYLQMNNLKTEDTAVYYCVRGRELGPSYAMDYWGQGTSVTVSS VL: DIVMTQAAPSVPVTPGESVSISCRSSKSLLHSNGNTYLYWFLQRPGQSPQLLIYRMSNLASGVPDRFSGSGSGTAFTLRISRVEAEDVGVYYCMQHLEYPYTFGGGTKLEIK , thanks.
Output: 0.07
